Where do these numbers come from? They come from the supplement of paper PMC3334620.

Target: Abf1 (UniProt P14164)
Sequence: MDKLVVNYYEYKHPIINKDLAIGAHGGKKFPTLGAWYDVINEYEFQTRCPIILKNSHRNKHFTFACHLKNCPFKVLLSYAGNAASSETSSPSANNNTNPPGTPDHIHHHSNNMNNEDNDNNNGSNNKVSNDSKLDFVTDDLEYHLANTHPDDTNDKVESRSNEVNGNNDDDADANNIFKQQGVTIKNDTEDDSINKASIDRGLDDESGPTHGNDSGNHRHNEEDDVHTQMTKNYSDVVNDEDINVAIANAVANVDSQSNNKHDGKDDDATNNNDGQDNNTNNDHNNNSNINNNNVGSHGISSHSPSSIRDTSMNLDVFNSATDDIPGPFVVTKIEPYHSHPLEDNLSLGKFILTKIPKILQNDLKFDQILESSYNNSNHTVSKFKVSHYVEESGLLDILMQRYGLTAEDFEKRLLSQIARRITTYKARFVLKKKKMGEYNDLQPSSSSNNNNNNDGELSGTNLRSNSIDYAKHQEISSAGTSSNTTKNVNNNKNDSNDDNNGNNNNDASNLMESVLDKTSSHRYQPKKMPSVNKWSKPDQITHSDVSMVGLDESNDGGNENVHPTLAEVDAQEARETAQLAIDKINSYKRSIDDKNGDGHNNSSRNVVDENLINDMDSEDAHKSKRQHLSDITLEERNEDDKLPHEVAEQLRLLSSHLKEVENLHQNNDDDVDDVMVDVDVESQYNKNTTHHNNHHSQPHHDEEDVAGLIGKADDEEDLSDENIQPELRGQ
Experiment: PBM E-score (8-mer binding enrichment) (E-score (-0.5 to 0.5)); higher = stronger / more preferred TF binding
Details: protein concentration: 200 nM; construct: GST-full length
In all, about 33,000 sequences were measured (“E-score (-0.5 to 0.5)”: median about -0.015, highest 2% from about 0.3 on). The sample as a whole holds a higher share of the highest values than the screen did.
outcomeMeasure: PBM E-score
Numbers only.

Solved cases below.
- macromoleculeSequence: "TCCGTACA"
  outcomeMeasure: "PBM E-score"
  recordedResult: 0.368
- macromoleculeSequence: "ATAATCCG"
  outcomeMeasure: "PBM E-score"
  recordedResult: -0.0846

Hi team, please reply with PBM E-score for each item in this list.
1. AAGGCGGC
2. AGTGAGCG
3. GTAGTGAA
4. CCCGTACG
5. CAGGGCCA

Reply:
1. -0.00603
2. 0.24
3. 0.0467
4. 0.348
5. -0.227

Provide the reported PBM E-score of each entry below, same order.
1. GGACGGTA
2. CATGGCGG
3. CGACGATC
4. CGACGTAA
5. CCGATACC
6. CATCGTGA
7. TCGTAGAA

Reply:
0.134
-0.0941
0.298
0.123
-0.101
0.135
0.393

Hey, quick one: what's PBM E-score for each of these?
1. CGACGAAG
2. AACCGTGG
3. CATCGTGC
4. GCGAGTGA
5. AGACGTGA
6. CTACGTAC
7. GTACGTAC

Reply:
[0.357, "-5e-05", 0.314, 0.137, 0.227, 0.297, -0.0114]

Each of the following entries comes with a recorded value; kindly state PBM E-score for each.
1. CATCGTGG
2. CCGTAGAA
3. AACCGTGC
4. TATGGGCA
5. GGGCTCTA

Reply:
0.0192
0.298
0.306
-0.0697
-0.22

Parameters: items (list). Returns: PBM E-score for each item.
1. CGACGACC
2. AGTCAGCC
3. AATGTCAC
4. AACACTGA
5. AGGGAACT
6. CCACTCTC

Reply:
[0.243, -0.181, 0.416, -0.142, -0.244, -0.22]

Items follow; give PBM E-score for each.
1. ACCGTACT
2. ACAGTTTA
3. GGACGATA
4. ATAGTGAT
5. ATAGTGAG
6. CGACGGTA
7. CCGTAGAC
8. CGACGAAA

Reply:
1. 0.286
2. -0.0111
3. 0.268
4. 0.436
5. 0.069
6. 0.322
7. 0.0491
8. 0.363

Count: 2. Required value per item: PBM E-score.
1. CGGTCAAC
2. GGACGTGA

Reply:
1: 0.0203; 2: 0.0158

Hi team, please reply with PBM E-score for each item in this list.
1. CCGAGTTA
2. CCACTACA
3. CCCGTACC
4. TTACGTAA
5. ACAGTGAT

Reply:
[0.0322, -0.0773, 0.182, 0.196, 0.294]
